assay: Inhibition of Trypanosoma cruzi recombinant carbonic anhydrase-mediated CO2 hydration by stopped-flow assay
REPORTED ENDPOINT: Ki (nM)

(Q) For the compound shown here, CCOc1ccc(C2=NOC(C(=O)NO)C2)cc1 (stereo not drawn) , give the reported Ki.
(A) 71.3

(Q) Now the same for O=C(NO)C1CC(c2cccc(Cl)c2)=NO1 (stereo not drawn)
(A) 267

(Q) // repeat for CC1(C(=O)NO)CC(c2cccc(Cl)c2)=NO1 (stereo not drawn) and report
(A) 365

A. O=C(NO)C1CC(c2ccccc2)=NO1 (stereo not drawn)
B. O=C(NO)C1CC(c2ccc(Cl)cc2)=NO1 (stereo not drawn)
C. CCOc1ccccc1C1=NOC(C(=O)NO)C1 (stereo not drawn)
D. CC1(C(=O)NO)CC(c2cccc(Br)c2)=NO1 (stereo not drawn)
(Q) List these items ordered by Ki, big to small. Order the labels as requested and list them.
(A) D, A, B, C

P. CC1(C(=O)NO)CC(c2ccccc2F)=NO1 (stereo not drawn)
Q. O=C(NO)C1CC(c2ccccc2Cl)=NO1 (stereo not drawn)
(Q) // returns P or Q , whichever has the lower Ki Please respond with the label that marks your chosen entry.
(A) P
(P: 141 nM, Q: 263 nM)

====

biological target: Carbonic anhydrase 1 (Homo sapiens); experiment: Inhibition of human recombinant carbonic anhydrase-1-mediated CO2 hydration by stopped-flow assay
Sequence (P00915 whole entry): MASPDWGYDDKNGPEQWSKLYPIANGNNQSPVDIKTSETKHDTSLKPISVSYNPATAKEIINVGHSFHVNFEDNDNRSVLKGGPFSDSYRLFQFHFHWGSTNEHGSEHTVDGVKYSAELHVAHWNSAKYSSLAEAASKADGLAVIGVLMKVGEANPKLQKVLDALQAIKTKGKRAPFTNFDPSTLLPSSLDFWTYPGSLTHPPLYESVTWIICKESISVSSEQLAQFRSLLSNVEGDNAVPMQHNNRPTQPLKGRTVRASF
pKi: −log10 of the molar value.
Listing of entries alongside the reported pKi.

(Q) Enter reported pKi observed with Carbonic anhydrase 1 (Homo sapiens) for CCOc1ccc(C2=NOC(C(=O)NN)C2)cc1 (configuration not stated)
(A) < 4.00

The record that follows has no pKi shown yet.
(Q) Item: CCOc1ccccc1C1=NOC(C(=O)NN)C1 (configuration not stated) Test system: Carbonic anhydrase 1 (Homo sapiens) Read-out: pKi Value: ?
(A) < 4.00

====

assay: Cytotoxicity against BALB/c mouse peritoneal macrophages after 48 hrs by MTT/LDH assay; type: cell-based, Peritoneal macrophage cell
REPORTED ENDPOINT: CC50 at 48 h (µM)
All answers are understood in µM, so give the number only.

(Q) For the molecule shown here, O=C(NO)C1CC(c2ccc(OCc3ccccc3)cc2)=NO1 (stereo unspecified) , give the reported CC50 at 48 h.
(A) 64

====

assay: Cytotoxicity against BALB/c mouse peritoneal macrophages after 24 hrs by MTT/LDH assay; assay type: cell-based, Peritoneal macrophage cell
REPORTED ENDPOINT: CC50 at 24 h (µM)
Write the value in µM as a bare number.

(Q) Request the reported CC50 at 24 h associated with O=C(NO)C1CC(c2ccc(OCc3ccccc3)cc2)=NO1 (stereo unspecified)
(A) 92

====

assay: Inhibition of Trypanosoma cruzi recombinant carbonic anhydrase-mediated CO2 hydration by stopped-flow assay
Listed compounds paired with reported Ki
Provide only the numeric value, understood in nM.

(Q) What does the data say about its Ki? Entry: O=C(NO)C1CC(c2ccc(OCc3ccccc3)cc2)=NO1 (centres undefined)
(A) 39.8

(Q) Further, for CC1(C(=O)NO)CC(c2cccc(F)c2)=NO1 (centres undefined) ?
(A) 182

Data origin: ChEMBL document CHEMBL3108733
